Biological target: UniProt:P10415
Assay: TR-FRET binding assay, GST-Bcl-2 with F-Bak peptide probe
Details: TR-FRET Binding Affinity, GST-Bcl-2, F-Bak peptide probe
Lab note: cut-off is 0.2 nM. Strictly less in Ki is Condition met. Exactly 0.2 nM or more is Condition not met.

Compound | Label Value
CC(c1ccccc1-c1ccc(Cl)cc1)N1CCN(c2ccc(C(=O)NS(=O)(=O)c3ccc(NCC4CCOCC4)c([N+](=O)[O-])c3)c(Oc3cccc4[nH]ccc34)c2)CC1 (centres unmarked) [Example 175] | Condition met

Exercise: Hi there! Is Ki for CN(C)CCCNc1ccc(S(=O)(=O)NC(=O)c2ccc(N3CCN(Cc4ccccc4-c4ccc(Cl)cc4)CC3)cc2Oc2cccc3[nH]ccc23)cc1[N+](=O)[O-] [Example 46] below 0.2 nM, do you know?
Key: Condition met

====

Target: UniProt:Q07817
Assay: TR-FRET binding assay, GST-Bcl-XL with F-Bak peptide probe
Details: TR-FRET Binding Affinity
Okay, here is how we bin by Ki: LOW: < 5 nM; MID: ≥ 5 nM and < 20 nM; HIGH: ≥ 20 nM

Exercise: # bin label for CN(C)CC(=O)N1CCO[C@@H](CNc2ccc(S(=O)(=O)NC(=O)c3ccc(N4CCN(CC5=C(c6ccc(Cl)cc6)CC(C)(C)CC5)CC4)cc3Oc3cccc4[nH]cnc34)cc2[N+](=O)[O-])C1 [Example 438]
Key: LOW

Exercise: Now this one: CC1(C)CCC(CN2CCN(c3ccc(C(=O)NS(=O)(=O)c4ccc(NC[C@H]5CC[C@@](C)(O)CC5)c([N+](=O)[O-])c4)c(Oc4cccc5[nH]ncc45)c3)CC2)=C(c2ccc(Cl)cc2)C1 [Example 526]
Key: LOW

Exercise: Now this one: CN(C)CC(=O)N1CCO[C@H](CNc2ccc(S(=O)(=O)NC(=O)c3ccc(N4CCN(CC5=C(c6ccc(Cl)cc6)CC(C)(C)CC5)CC4)cc3Oc3cccc4[nH]cnc34)cc2[N+](=O)[O-])C1 [Example 437]
Key: LOW

Exercise: Now this one: CC1(C)CCC(CN2CCN(c3ccc(C(=O)NS(=O)(=O)c4cnc(OCC5CC5(F)F)c(Cl)c4)c(Oc4cccc5[nH]ncc45)c3)CC2)=C(c2ccc(Cl)cc2)C1 (stereo not shown) [Example 491]
Key: HIGH

Exercise: Now this one: CC1(C)CCC(CN2CCN(c3ccc(C(=O)NS(=O)(=O)c4ccc(OCC5(F)CCOCC5)c(C(F)(F)F)c4)c(Oc4cccc5[nH]ncc45)c3)CC2)=C(c2ccc(Cl)cc2)C1 [Example 497]
Key: HIGH

====

Molecular target: GST-Bcl-XL (Homo sapiens, UniProt Q07817)
Sequence (Q07817 whole entry): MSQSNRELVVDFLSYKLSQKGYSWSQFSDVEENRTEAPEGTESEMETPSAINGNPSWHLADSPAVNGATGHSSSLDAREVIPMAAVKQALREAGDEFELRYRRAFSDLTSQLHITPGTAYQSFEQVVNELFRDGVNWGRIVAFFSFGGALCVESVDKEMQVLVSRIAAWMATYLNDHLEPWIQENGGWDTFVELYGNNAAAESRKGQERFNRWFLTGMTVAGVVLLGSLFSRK
Test: TR-FRET binding assay, GST-Bcl-XL with F-Bak peptide probe
Conditions: TR-FRET Binding Affinity, GST-Bcl-XL, F-Bak peptide probe
pKi: −log10 of the molar value.
Class 1 (yes): pKi at least 7. Class 0 (no): pKi below 7.

Molecule | Label Value
CC1(C)CCC(CN2CCN(c3ccc(C(=O)NS(=O)(=O)c4ccc(NN5CCOCC5)c([N+](=O)[O-])c4)c(Oc4ccc5[nH]ccc5c4)c3)CC2)=C(c2ccc(Cl)cc2)C1 [Example 260] | 0 (no)

Exercise: Check this molecule for pKi at or above 7: CNc1ccc(S(=O)(=O)NC(=O)c2ccc(N3CCN(CC4=C(c5ccc(Cl)cc5)CC(C)(C)CC4)CC3)cc2Oc2ccc3[nH]ccc3c2)cc1S(=O)(=O)C(F)(F)F [Example 328]
Key: 0 (no)

====

Target: GST-Bcl-XL (Homo sapiens)
Assay: TR-FRET binding assay, GST-Bcl-XL with F-Bak peptide probe
Details: TR-FRET Binding Affinity
Experimental: Tb-anti-GST antibody was purchased from Invitrogen (Catalog No. PV4216). […] The samples were then mixed on a shaker for 1 minute and incubated for an additional 3 hours at room temperature. […] Fluorescence was measured on the ENVISION plate reader (Perkin Elmer) using a 340/35 nm excitation filter and 520/525 (F-Bak peptide) and 495/510 nm (Tb-labeled […] antibody) emission filters. […]
Measure: Ki (nM)
// units = nM; emit number, no label

As a guide, the following entries are already answered.
Molecule | Tested Target | Measure | Recorded Measurement
CC1(C)CCC(CN2CCN(c3ccc(C(=O)NS(=O)(=O)c4cnc(OC[C@@H]5CCN(CC(F)F)C5)c(Cl)c4)c(Oc4cccc5[nH]ncc45)c3)CC2)=C(c2ccc(Cl)cc2)C1 | GST-Bcl-XL (Homo sapiens) | Ki | 13.6
CC1(C)CCC(CN2CCN(c3ccc(C(=O)NS(=O)(=O)c4ccc(OCC5(F)CCOCC5)c(C#N)c4)c(Oc4cccc5[nH]ncc45)c3)CC2)=C(c2ccc(Cl)cc2)C1 | GST-Bcl-XL (Homo sapiens) | Ki | 163
CC1(C)CCC(CN2CCN(c3ccc(C(=O)NS(=O)(=O)c4ccc(NC[C@H]5CN(C6CC6)CCO5)c([N+](=O)[O-])c4)c(Oc4cccc5[nH]cnc45)c3)CC2)=C(c2ccc(Cl)cc2)C1 | GST-Bcl-XL (Homo sapiens) | Ki | 76.7
CC1(O)CCC(COc2ncc(S(=O)(=O)NC(=O)c3ccc(N4CCN(CC5=C(c6ccc(Cl)cc6)CCC(F)(F)C5)CC4)cc3Oc3cccc4[nH]ncc34)cc2Cl)CC1 (stereo not drawn) | GST-Bcl-XL (Homo sapiens) | Ki | 12.6
CC1(C)CCC(CN2CCN(c3ccc(C(=O)NS(=O)(=O)c4ccc(NC[C@H]5CN(C6CC6)CCO5)c([N+](=O)[O-])c4)c(Oc4cccc5[nH]ncc45)c3)CC2)=C(c2ccc(Cl)cc2)C1 | GST-Bcl-XL (Homo sapiens) | Ki | 8.28
CC1(C)CCC(CN2CCN(c3ccc(C(=O)NS(=O)(=O)c4cnc(OCC5CCOCC5)c(F)c4)c(Oc4cccc5[nH]ncc45)c3)CC2)=C(c2ccc(Cl)cc2)C1 | GST-Bcl-XL (Homo sapiens) | Ki | 75.4
CCN(C)C(=O)N1CCOC(CNc2ccc(S(=O)(=O)NC(=O)c3ccc(N4CCN(CC5=C(c6ccc(Cl)cc6)CC(C)(C)CC5)CC4)cc3Oc3cccc4[nH]ncc34)cc2[N+](=O)[O-])C1 (stereo not drawn) | GST-Bcl-XL (Homo sapiens) | Ki | 4.46
CC1(C)CC(c2ccc(Cl)cc2)=C(CN2CCN(c3ccc(C(=O)NS(=O)(=O)c4ccc(OCC5(F)CCOCC5)c(Cl)c4)c(Oc4cccc5[nH]ncc45)c3)CC2)CO1 | GST-Bcl-XL (Homo sapiens) | Ki | 43.3

Field: next molecule
Exercise: Quick one: Ki of `CC1(C)CCC(CN2CCN(c3ccc(C(=O)NS(=O)(=O)c4cnc(OCC5(F)CCN(C6COC6)CC5)c(Cl)c4)c(Oc4cccc5[nH]ncc45)c3)CC2)=C(c2ccc(Cl)cc2)C1` ?
Key: 3.67

====

Target: GST-Bcl-2 (Homo sapiens, UniProt P10415)
Sequence (P10415 whole entry): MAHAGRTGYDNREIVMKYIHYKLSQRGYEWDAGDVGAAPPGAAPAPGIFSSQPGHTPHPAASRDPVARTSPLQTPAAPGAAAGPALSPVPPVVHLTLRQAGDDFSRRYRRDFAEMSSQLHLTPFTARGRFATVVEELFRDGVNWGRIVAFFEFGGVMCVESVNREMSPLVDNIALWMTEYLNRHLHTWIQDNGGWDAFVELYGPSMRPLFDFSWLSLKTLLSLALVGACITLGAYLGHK
Experiment: TR-FRET binding assay, GST-Bcl-2 with F-Bak peptide probe
Conditions: TR-FRET Binding Affinity, GST-Bcl-2, F-Bak peptide probe
Measure: Ki (nM)
// units = nM; emit number, no label

As a guide, the following entries are already answered.
Compound | Tested Target | Unit Name | Ki
CN(C)CCCNc1ccc(S(=O)(=O)NC(=O)c2ccc(N3CCN(CC4=C(c5ccc(Cl)cc5)CC(C)(C)CC4)CC3)cc2Oc2ccc3[nH]ccc3c2)cc1C#N | GST-Bcl-2 (Homo sapiens, UniProt P10415) | nM | 2.05
CC1(C)CCC(CN2CCN(c3ccc(C(=O)NS(=O)(=O)c4ccc(NC(CO)C5CCOCC5)c([N+](=O)[O-])c4)c(Oc4ccc5[nH]ccc5c4)c3)CC2)=C(c2ccc(Cl)cc2)C1 (centres unmarked) | GST-Bcl-2 (Homo sapiens, UniProt P10415) | nM | 1.8
CC1(C)CCC(CN2CCN(c3ccc(C(=O)NS(=O)(=O)c4ccc(NCCCn5ccnc5)c([N+](=O)[O-])c4)c(Oc4ccc5[nH]ccc5c4)c3)CC2)=C(c2ccc(Cl)cc2)C1 | GST-Bcl-2 (Homo sapiens, UniProt P10415) | nM | 0.14
CN(C)CCCNc1ccc(S(=O)(=O)NC(=O)c2ccc(N3CCN(CC4=C(c5ccc(Cl)cc5)CCC(C)(C)C4)CC3)cc2Oc2cccc3[nH]ccc23)cc1[N+](=O)[O-] | GST-Bcl-2 (Homo sapiens, UniProt P10415) | nM | 0.268
O=C(NS(=O)(=O)c1ccc(NCCn2nccn2)c([N+](=O)[O-])c1)c1ccc(N2CCN(Cc3ccccc3-c3ccc(Cl)cc3)CC2)cc1Oc1ccccc1 | GST-Bcl-2 (Homo sapiens, UniProt P10415) | nM | 0.823
CC1(C)CCC(CN2CCN(c3ccc(C(=O)NS(=O)(=O)c4ccc(NCCCN5CCOCC5)c([N+](=O)[O-])c4)c(Oc4ccc5[nH]ccc5c4)c3)CC2)=C(c2ccc(Cl)cc2)C1 | GST-Bcl-2 (Homo sapiens, UniProt P10415) | nM | 0.239

Exercise: Quick one: Ki of `O=C(NS(=O)(=O)c1ccccc1OCCN1CCCCC1)c1ccc(N2CCN(Cc3ccccc3-c3ccc(Cl)cc3)CC2)cc1Oc1ccccc1` ?
Key: 61.1

Exercise: Now this one: `CC1(C)CCC(CN2CCN(c3ccc(C(=O)NS(=O)(=O)c4ccc(NN5CCCCC5)c([N+](=O)[O-])c4)c(Oc4cccc5[nH]ccc45)c3)CC2)=C(c2ccc(Cl)cc2)C1`
Key: 47.5

Exercise: Now this one: `CC1(C)CCC(CN2CCN(c3ccc(C(=O)NS(=O)(=O)c4ccc(S(C)(=O)=O)cc4)c(Oc4cccc5[nH]ccc45)c3)CC2)=C(c2ccc(Cl)cc2)C1`
Key: 2.17

Exercise: Now this one: CC(C1=C(c2ccc(Cl)cc2)CC(C)(C)CC1)N1CCN(c2ccc(C(=O)NS(=O)(=O)c3ccc(NCCCN4CCOCC4)c([N+](=O)[O-])c3)c(Oc3ccc4[nH]ccc4c3)c2)CC1 (centres unmarked)
Key: 0.171

Exercise: Now this one: `CC1(C)CCC(CN2CCN(c3ccc(C(=O)NS(=O)(=O)c4ccc(NCC5CCOCC5)c([N+](=O)[O-])c4)c(Oc4cccc5[nH]cnc45)c3)CC2)=C(c2ccc(Cl)cc2)C1`
Key: 0.003
